The following compounds each carry a recorded pIC50 for UniProtKB P00533.
Sequence (P00533 25-1210): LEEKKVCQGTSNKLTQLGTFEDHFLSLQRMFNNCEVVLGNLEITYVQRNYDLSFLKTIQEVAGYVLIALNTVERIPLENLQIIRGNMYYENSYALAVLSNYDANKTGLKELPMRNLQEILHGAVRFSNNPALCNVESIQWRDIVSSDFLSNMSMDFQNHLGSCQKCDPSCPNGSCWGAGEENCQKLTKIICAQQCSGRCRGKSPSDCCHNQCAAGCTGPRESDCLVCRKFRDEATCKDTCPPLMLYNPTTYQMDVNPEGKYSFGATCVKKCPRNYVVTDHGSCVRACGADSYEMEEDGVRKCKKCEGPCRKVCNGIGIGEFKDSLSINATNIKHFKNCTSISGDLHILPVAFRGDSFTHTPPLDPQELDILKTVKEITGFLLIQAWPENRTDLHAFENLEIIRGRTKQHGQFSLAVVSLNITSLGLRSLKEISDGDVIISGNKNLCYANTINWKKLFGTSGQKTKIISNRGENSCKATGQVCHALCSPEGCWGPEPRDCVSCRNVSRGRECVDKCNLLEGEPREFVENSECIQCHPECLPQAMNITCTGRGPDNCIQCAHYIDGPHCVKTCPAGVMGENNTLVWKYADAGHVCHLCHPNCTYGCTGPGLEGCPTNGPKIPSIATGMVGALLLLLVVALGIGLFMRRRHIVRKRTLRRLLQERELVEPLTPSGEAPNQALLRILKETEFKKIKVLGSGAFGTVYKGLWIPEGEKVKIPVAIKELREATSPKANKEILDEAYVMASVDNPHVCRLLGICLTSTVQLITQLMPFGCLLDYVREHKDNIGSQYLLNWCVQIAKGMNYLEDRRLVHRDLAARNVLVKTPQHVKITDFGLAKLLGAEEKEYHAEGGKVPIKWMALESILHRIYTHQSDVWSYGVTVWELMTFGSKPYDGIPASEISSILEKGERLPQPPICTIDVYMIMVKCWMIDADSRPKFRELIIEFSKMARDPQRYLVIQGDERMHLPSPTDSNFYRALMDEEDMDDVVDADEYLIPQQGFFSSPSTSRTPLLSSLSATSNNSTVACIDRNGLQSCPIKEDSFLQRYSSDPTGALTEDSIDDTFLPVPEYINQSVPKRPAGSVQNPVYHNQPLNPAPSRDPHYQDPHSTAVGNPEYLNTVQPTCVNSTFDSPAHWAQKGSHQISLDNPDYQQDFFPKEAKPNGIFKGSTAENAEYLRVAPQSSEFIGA
On this scale, pIC50 is minus log10 of a concentration expressed in M (mol/L).

*Q* // output pIC50; input CC(C)Oc1ccc(NC(=O)/C=C/CN(C)C)cc1Nc1ncc(Cl)c(Nc2ccc3ccccc3c2)n1 ; system UniProtKB P00533
*A* 5.57

*Q* // output pIC50; input CN(C)C/C=C/C(=O)Nc1ccc(F)c(Nc2ncc(Cl)c(Nc3ccc4ccccc4c3)n2)c1 ; system UniProtKB P00533
*A* 5.85

*Q* // output pIC50; input CN(C)C/C=C/C(=O)Nc1cccc(Nc2ncc(Br)c(Nc3ccc4ccccc4c3)n2)c1 ; system UniProtKB P00533
*A* 5.41

*Q* // output pIC50; input C=CC(=O)Nc1cc(Nc2ncc(Cl)c(Nc3ccc4ccccc4c3)n2)c(OC)cc1N1CC(N(C)C)C1 ; system UniProtKB P00533
*A* 8.37

*Q* // output pIC50; input CCOc1ccc(NC(=O)/C=C/CN(C)C)cc1Nc1ncc(Br)c(Nc2ccc3ccccc3c2)n1 ; system UniProtKB P00533
*A* 5.55

*Q* // output pIC50; input C=CC(=O)Nc1cc(CN2CCCN(C)CC2)cc(Nc2ncc(Cl)c(Nc3ccc4ccccc4c3)n2)c1 ; system UniProtKB P00533
*A* 6.86

*Q* // output pIC50; input COc1ccc(NC(=O)/C=C/CN(C)C)cc1Nc1ncc(C(C)C)c(Nc2ccc3ccccc3c2)n1 ; system UniProtKB P00533
*A* 5.64

---

System: human non-small cell lung cancer NCI-H1975 cell line
Test: SRB proliferation assay, NCI-H1975 cells
Format: cell-based
Settings: NCI-H1975, SRB, 72 h, read-out: IC50 NCI-H1975
Assign pIC50 to each entry below.
On this scale, pIC50 is minus log10 of a concentration expressed in M (mol/L).

*Q* Give reported pIC50 value for C=CC(=O)Nc1cc(Nc2ncc(Cl)c(Nc3ccc4ccccc4c3)n2)c(OC)cc1N1CCN(C(C)=O)CC1
*A* 7.29

*Q* Give reported pIC50 value for COc1cc(F)c(NC(=O)/C=C/CN(C)C)cc1Nc1ncc(Cl)c(Nc2ccc3ccccc3c2)n1
*A* 6.37

*Q* Give reported pIC50 value for COc1ccc(NC(=O)/C=C/CN(C)C)cc1Nc1ncc(Cl)c(Nc2ccc3ncccc3c2)n1
*A* 6.62

*Q* Give reported pIC50 value for Cc1ccc(NC(=O)/C=C/CN(C)C)cc1Nc1ncc(Cl)c(Nc2ccc3ccccc3c2)n1
*A* 6.06

These measurements were taken from patent US10059694B2.
